B1: TRIM29 (parent)
chain: RKCPVHGKTMELFCQTDQTCICYL

Variants of: B1
ASSAY: protein stability index of a GFP-peptide fusion (GPS, HEK-293T) (PSI 1-6); higher = more stable;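 note: lentivirally expressed fusions sorted by FACS into six bins by GFP to DsRed ratio, PSI derived from sequencing read proportions per bin multiplied by bin number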
MEASUREMENT CONDITIONS: c terminus: a fixed tail appended
Parameter threshold = 2. Response is fulfilled when protein stability index meets or exceeds it, else not fulfilled.

Could you tell me if the measured protein stability index of T16S reaches 2 or more?
fulfilled

Could you tell me if the measured protein stability index of Q15P reaches 2 or more?
fulfilled

Could you tell me if the measured protein stability index of M10Y reaches 2 or more?
not fulfilled

Could you tell me if the measured protein stability index of L12K reaches 2 or more?
not fulfilled

Could you tell me if the measured protein stability index of K8H reaches 2 or more?
fulfilled

Could you tell me if the measured protein stability index of I21N reaches 2 or more?
fulfilled

Could you tell me if the measured protein stability index of Q18G reaches 2 or more?
fulfilled

Could you tell me if the measured protein stability index of V5M reaches 2 or more?
fulfilled

Could you tell me if the measured protein stability index of T19V reaches 2 or more?
not fulfilled

Could you tell me if the measured protein stability index of C14L reaches 2 or more?
fulfilled

Could you tell me if the measured protein stability index of Q15R reaches 2 or more?
not fulfilled

Could you tell me if the measured protein stability index of T9V reaches 2 or more?
fulfilled

Could you tell me if the measured protein stability index of K8M reaches 2 or more?
fulfilled

Could you tell me if the measured protein stability index of C3T reaches 2 or more?
fulfilled

Could you tell me if the measured protein stability index of Y23E reaches 2 or more?
fulfilled

Could you tell me if the measured protein stability index of T19C reaches 2 or more?
fulfilled

Could you tell me if the measured protein stability index of P4S reaches 2 or more?
fulfilled

Could you tell me if the measured protein stability index of P4T reaches 2 or more?
fulfilled

Could you tell me if the measured protein stability index of M10D reaches 2 or more?
fulfilled

Could you tell me if the measured protein stability index of T19Y reaches 2 or more?
not fulfilled

Could you tell me if the measured protein stability index of C22W reaches 2 or more?
not fulfilled

Could you tell me if the measured protein stability index of T9W reaches 2 or more?
fulfilled

Could you tell me if the measured protein stability index of Q15V reaches 2 or more?
fulfilled

Could you tell me if the measured protein stability index of Y23D reaches 2 or more?
fulfilled

Could you tell me if the measured protein stability index of T16F reaches 2 or more?
fulfilled

Could you tell me if the measured protein stability index of C20R reaches 2 or more?
fulfilled

Could you tell me if the measured protein stability index of V5P reaches 2 or more?
fulfilled

Could you tell me if the measured protein stability index of G7Q reaches 2 or more?
fulfilled

Could you tell me if the measured protein stability index of C22E reaches 2 or more?
fulfilled

Could you tell me if the measured protein stability index of H6G reaches 2 or more?
fulfilled

Could you tell me if the measured protein stability index of Q18F reaches 2 or more?
fulfilled

Could you tell me if the measured protein stability index of Y23C reaches 2 or more?
fulfilled

Could you tell me if the measured protein stability index of L12A reaches 2 or more?
fulfilled

Could you tell me if the measured protein stability index of I21M reaches 2 or more?
fulfilled

Could you tell me if the measured protein stability index of C22D reaches 2 or more?
fulfilled

Could you tell me if the measured protein stability index of P4R reaches 2 or more?
fulfilled

Could you tell me if the measured protein stability index of V5S reaches 2 or more?
fulfilled

Could you tell me if the measured protein stability index of D17T reaches 2 or more?
not fulfilled

Could you tell me if the measured protein stability index of I21Y reaches 2 or more?
fulfilled

Could you tell me if the measured protein stability index of F13V reaches 2 or more?
fulfilled

Could you tell me if the measured protein stability index of Q15A reaches 2 or more?
fulfilled

Could you tell me if the measured protein stability index of R1E reaches 2 or more?
not fulfilled

Could you tell me if the measured protein stability index of K2G reaches 2 or more?
fulfilled

Could you tell me if the measured protein stability index of I21T reaches 2 or more?
fulfilled

Could you tell me if the measured protein stability index of H6R reaches 2 or more?
fulfilled

Could you tell me if the measured protein stability index of R1W reaches 2 or more?
fulfilled

Could you tell me if the measured protein stability index of I21G reaches 2 or more?
fulfilled

Could you tell me if the measured protein stability index of E11L reaches 2 or more?
fulfilled

Could you tell me if the measured protein stability index of K2T reaches 2 or more?
not fulfilled

Could you tell me if the measured protein stability index of R1C reaches 2 or more?
fulfilled

Could you tell me if the measured protein stability index of L12I reaches 2 or more?
fulfilled

Could you tell me if the measured protein stability index of C20I reaches 2 or more?
not fulfilled

Could you tell me if the measured protein stability index of Y23H reaches 2 or more?
fulfilled

Could you tell me if the measured protein stability index of H6N reaches 2 or more?
fulfilled

Could you tell me if the measured protein stability index of D17R reaches 2 or more?
fulfilled

Could you tell me if the measured protein stability index of Q15G reaches 2 or more?
fulfilled

Could you tell me if the measured protein stability index of H6D reaches 2 or more?
fulfilled
